- assay_protocol: Caco-2 membrane permeability and efflux test
- Format: in vitro ADME
- setup_conditions: human, Caco-2, B-A, Caco-2 monolayer, 37° C., 90 minutes, Sample-01; read-out: Papp Sample-01
quantity: Papp B→A at 90 min (×10⁻⁶ cm/s)

{"compound": "Nc1ncnc2c1c(-c1ccc(Oc3ccccc3)cc1)nn2C1CCN(CCOCCOCCNc2ccc3c(c2)CN(C2CCC(=O)NC2=O)C3=O)CC1 (centres unmarked) [Control compound 1]", "Papp B→A at 90 min [×10⁻⁶ cm/s]": 30.2}

[P] Nc1ncnc2c1c(-c1ccc(Oc3ccccc3)cc1)nn2C1CCN(CCOCCOCCNc2ccc3c(c2)C(=O)N(C2CCC(=O)NC2=O)C3=O)CC1 (centres unmarked) [Control compound 3]
[Q] Nc1ncnc2c1c(-c1ccc(Oc3ccccc3)cc1)nn2C1CCN(CCCCCOCCOc2ccc3c(c2)CN(C2CCC(=O)NC2=O)C3=O)CC1 (centres unmarked) [Compound 1]
[R] Nc1ncnc2c1c(-c1ccc(Oc3ccccc3)cc1)nn2C1CCCN(CCOCCOCCOCCOCCNc2cccc3c2C(=O)N(C2CCC(=O)NC2=O)C3=O)C1 (centres unmarked) [Control compound 2]
[S] Nc1ncnc2c1c(-c1ccc(Oc3ccccc3)cc1)nn2C1CCN(CCOCCCCCOc2ccc3c(c2)CN(C2CCC(=O)NC2=O)C3=O)CC1 (centres unmarked) [Compound 2]
QUERY: Number of compounds to sort: 4. Sort criterion: Papp B→A at 90 min, ascending. Ranked list of labels, please, in the requested order.
RESULT: S, Q, R, P
(S: 2.73 ×10⁻⁶ cm/s, Q: 7.18 ×10⁻⁶ cm/s, R: 18.1 ×10⁻⁶ cm/s, P: 33.5 ×10⁻⁶ cm/s)
